- testTarget: p110β/p85α (Homo sapiens (Human), UniProt P42338)
- Sequence (P42338 whole entry): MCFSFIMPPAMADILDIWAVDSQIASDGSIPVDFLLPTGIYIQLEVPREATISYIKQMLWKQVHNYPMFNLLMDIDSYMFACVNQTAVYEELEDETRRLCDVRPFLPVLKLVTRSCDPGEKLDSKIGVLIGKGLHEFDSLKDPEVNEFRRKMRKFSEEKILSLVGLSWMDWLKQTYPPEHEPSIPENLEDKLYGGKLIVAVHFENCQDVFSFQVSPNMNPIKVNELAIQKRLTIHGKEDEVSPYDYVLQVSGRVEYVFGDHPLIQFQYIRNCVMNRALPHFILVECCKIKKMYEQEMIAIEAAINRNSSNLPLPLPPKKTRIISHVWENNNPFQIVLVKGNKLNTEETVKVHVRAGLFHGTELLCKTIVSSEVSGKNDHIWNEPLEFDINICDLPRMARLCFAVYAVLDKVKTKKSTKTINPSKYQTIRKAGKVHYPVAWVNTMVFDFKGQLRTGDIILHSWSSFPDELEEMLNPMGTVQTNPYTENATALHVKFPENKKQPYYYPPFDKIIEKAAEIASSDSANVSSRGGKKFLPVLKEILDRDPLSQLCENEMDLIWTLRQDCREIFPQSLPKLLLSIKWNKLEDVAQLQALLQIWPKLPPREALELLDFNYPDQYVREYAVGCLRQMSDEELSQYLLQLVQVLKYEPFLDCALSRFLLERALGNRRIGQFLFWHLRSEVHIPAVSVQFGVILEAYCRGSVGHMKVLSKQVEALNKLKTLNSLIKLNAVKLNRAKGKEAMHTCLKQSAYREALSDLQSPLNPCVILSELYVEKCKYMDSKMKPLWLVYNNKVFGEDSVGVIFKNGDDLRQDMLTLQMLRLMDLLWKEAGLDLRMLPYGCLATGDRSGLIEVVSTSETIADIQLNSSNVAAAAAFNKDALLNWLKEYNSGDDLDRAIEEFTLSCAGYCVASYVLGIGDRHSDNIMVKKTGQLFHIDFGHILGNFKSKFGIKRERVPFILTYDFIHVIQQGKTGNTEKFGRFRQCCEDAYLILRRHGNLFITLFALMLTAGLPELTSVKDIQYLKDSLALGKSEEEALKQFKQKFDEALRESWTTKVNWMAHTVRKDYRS
- Sequence (P27986 whole entry partner): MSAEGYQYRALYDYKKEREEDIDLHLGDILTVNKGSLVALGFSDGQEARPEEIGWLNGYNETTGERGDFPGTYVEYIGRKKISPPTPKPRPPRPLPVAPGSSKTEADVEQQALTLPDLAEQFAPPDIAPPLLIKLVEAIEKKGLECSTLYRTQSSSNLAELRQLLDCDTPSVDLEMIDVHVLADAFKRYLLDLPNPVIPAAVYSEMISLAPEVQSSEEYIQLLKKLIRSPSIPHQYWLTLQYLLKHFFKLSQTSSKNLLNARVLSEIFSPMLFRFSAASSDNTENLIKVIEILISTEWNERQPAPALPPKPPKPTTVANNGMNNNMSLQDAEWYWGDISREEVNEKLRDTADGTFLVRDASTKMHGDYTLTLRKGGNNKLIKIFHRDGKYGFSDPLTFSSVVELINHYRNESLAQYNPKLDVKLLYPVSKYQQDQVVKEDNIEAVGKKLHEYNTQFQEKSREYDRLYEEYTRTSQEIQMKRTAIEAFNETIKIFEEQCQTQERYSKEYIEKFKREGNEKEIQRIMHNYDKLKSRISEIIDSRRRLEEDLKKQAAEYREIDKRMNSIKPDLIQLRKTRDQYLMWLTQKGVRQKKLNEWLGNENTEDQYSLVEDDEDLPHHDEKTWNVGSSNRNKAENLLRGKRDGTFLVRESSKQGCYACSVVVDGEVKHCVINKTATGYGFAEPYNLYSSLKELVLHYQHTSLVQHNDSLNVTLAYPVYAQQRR
- procedureDetails: PI 3-Kinase (human) HTRF assay, p110β/p85α
- Format: biochemical
- details: in vitro; read-out: PI3K β IC50
Overview of reported IC50 across a group of compounds:

Would you please look over these solved cases?
Please indicate IC50 recorded for `Nc1cn2cc(-c3ccc4nc(N)oc4c3)ccc2n1`
< 10 µM

Please indicate IC50 recorded for `Nc1nc2cc(-c3ccc4ncc(C(=O)N5CC(N6CCOCC6)C5)n4c3)ccc2o1`
< 10 µM

Please indicate IC50 recorded for `C[C@@H]1CN(C2CN(c3cnc4ccc(-c5ccc6oc(N)nc6c5)cc4n3)C2)CCN1`
< 10 µM

Please indicate IC50 recorded for `COc1nc(-c2ccc3oc(N)nc3c2)cnc1N`
< 1 µM

Please indicate IC50 recorded for CC(Oc1nc(-c2ccc3oc(N)nc3c2)cnc1N)C(F)(F)F (stereo not drawn)
< 1 µM

Next:
Please indicate IC50 recorded for `Nc1nc2cc(-c3ccc4ncc(N5CC(C(=O)N6CCOCC6)C5)nc4c3)ccc2o1`
< 10 µM

Please indicate IC50 recorded for `Nc1nc2cc(-c3ccc4ncc(C(=O)N5CCC(N)CC5)n4c3)ccc2o1`
< 1 µM

Please indicate IC50 recorded for `Nc1nc2cc(-c3ccc4ncc(C(=O)NCCCN5CCOCC5)n4c3)ccc2o1`
< 1 µM

Please indicate IC50 recorded for `CC1(C)CN(C2CN(c3cnc4ccc(-c5ccc6oc(N)nc6c5)cc4n3)C2)CCN1`
< 1 µM

Please indicate IC50 recorded for `Cc1ccn(C2CN(c3cnc4ccc(-c5ccc6oc(N)nc6c5)cc4n3)C2)n1`
< 10 µM

Please indicate IC50 recorded for `CCN(CC)CCCNc1cnc2ccc(-c3ccc4oc(N)nc4c3)cc2n1`
< 1 µM

Please indicate IC50 recorded for `Cc1cc(-c2ccc3ncc(C(=O)N4CCOCC4)n3c2)cc2nc(N)oc12`
< 10 µM

Please indicate IC50 recorded for `CN1CCC(NC(=O)c2cnc3ccc(-c4ccc5oc(N)nc5c4)nn23)CC1`
< 0.1 µM

Please indicate IC50 recorded for `CCN(CC)CCNC(=O)c1cnc2ccc(-c3ccc4oc(N)nc4c3)cn12`
< 1 µM

Please indicate IC50 recorded for `Cc1cc2oc(N)nc2cc1-c1ccc2ncc(N3CCN[C@@H](C)C3)nc2c1`
< 1 µM

Please indicate IC50 recorded for `C[C@H](N)C(=O)N1CCN(c2cnc3ccc(-c4ccc5oc(N)nc5c4)cc3n2)CC1`
< 0.1 µM

Please indicate IC50 recorded for `Nc1nc2cc(-c3ccc4ncc(NCCCN5CCOCC5)nc4c3)ccc2o1`
< 1 µM

Please indicate IC50 recorded for `Nc1nc2cc(-c3ccc4ncc(N5CC(N6CCS(=O)(=O)CC6)C5)nc4c3)ccc2o1`
< 10 µM
